Cited source for all entries: paper PMC4596243

- Type: in vivo, rat
- Measurement Setup: male, athymic, rat, tumor ECF (brain microdialysate), po, 50 mg/kg, T1/2, corrected for recovery; post-cediranib; mean ± S.D.
Readout: half-life (h)
Quick note: give the figure in h, leave out the unit.

I would be grateful if you could share the reported half-life for Cn1nnc2c(C(N)=O)ncn2c1=O [TMZ, temozolomide] .
2

* * *

- Format: in vivo, rat
- Measurement Setup: male, athymic, rat, tumor ECF (brain microdialysate), po, 50 mg/kg, Cmax, corrected for recovery; pre-cediranib; mean ± S.D.
Readout: Cmax (ng/mL)
Quick note: give the figure in ng/mL, leave out the unit.

I would be grateful if you could share the reported Cmax for Cn1nnc2c(C(N)=O)ncn2c1=O [TMZ, temozolomide] .
590

* * *

- Format: in vivo, rat
- Measurement Setup: male, athymic, rat, tumor ECF (brain microdialysate), po, 50 mg/kg, T1/2, raw data; post-cediranib; mean ± S.D.
Readout: half-life
Remember to follow the number with its unit.

I would be grateful if you could share the reported half-life for Cn1nnc2c(C(N)=O)ncn2c1=O [TMZ, temozolomide] .
120 min

* * *

- Assay type: in vivo, rat
- Measurement Setup: male, athymic, rat, tumor ECF (brain microdialysate), po, 50 mg/kg, T1/2, raw data; pre-cediranib; mean ± S.D.
Readout: half-life
Remember to follow the number with its unit.

I would be grateful if you could share the reported half-life for Cn1nnc2c(C(N)=O)ncn2c1=O [TMZ, temozolomide] .
102 min
